Data origin: patent US9981940B2

protocolDetails: log P by HPLC (OECD Guideline 117), method [b] neutral range
Format: physicochemical
conditionLabel: HPLC, method [b] neutral range
measuredProperty: logP[b]

Completed entries (count: 2):
compound: COc1nn(-c2cc([S+]([O-])CC(F)(F)F)c(C)cc2F)c(=O)n1C1CC1 (stereo not shown) [Example 104]
value: 2.08
--
compound: Cc1cc(F)c(-n2nc(C3CC3)n(C3CC3)c2=O)cc1[S+]([O-])CC(F)(F)F (racemic) [Example 66]
value: 2.33

(a) COCc1nn(-c2cc([S+]([O-])CC(F)(F)F)c(C)cc2F)c(=O)n1N (stereo not shown) [Example 207]
(b) Cc1cc(F)c(-n2nc(C(F)(F)F)n(C(C)(C)C)c2=O)cc1[S+]([O-])CC(F)(F)F (racemic) [Example 68]
Exam item: Given the two records a and b , choose the one whose logP[b] value is lower. Write down the label attached to your selection.
Marked response: a
(a: 1.45, b: 3.49)

====

protocolDetails: log P by HPLC (OECD Guideline 117), method [b] neutral range
Assay type: physicochemical
conditionLabel: HPLC, method [b] neutral range
measuredProperty: logP[b]

molecule: COc1nn(-c2cc([S+]([O-])CC(F)(F)F)c(C)cc2F)c(=O)n1C1CC1 (single isomer, unassigned) [Example 379]
logP[b]: 2.09
//
molecule: COc1nn(-c2ccc(C(F)(F)F)c([S+]([O-])CC(F)(F)F)c2)c(=O)n1C1CC1 (centres unmarked) [Example 147]
logP[b]: 3.19

(A) Cc1ccc(-n2nc(OC3CCCCC3)n(C)c2=O)cc1SCC(F)(F)F [Example 155]
(B) CCCOc1nn(-c2ccc(C)c([S+]([O-])CC(F)(F)F)c2)c(=O)n1C (centres unmarked) [Example 133]
(C) Cc1cc(F)c(-n2nc(C3CC3)n(N)c2=O)cc1[S+]([O-])CC(F)(F)F (centres unmarked) [Example 206]
Exam item: Output the entries ranked by logP[b] from maximum down to minimum. Provide the labels, sequenced as the question asks.
Marked response: A, B, C
(A: 5.17, B: 2.86, C: 1.72)

(P) COCCOC1=CC(=O)N(c2cc([S+]([O-])CC(F)(F)F)c(C)cc2F)C1 (centres unmarked) [Example 335]
(Q) C=CCSc1nn(-c2cc(SCC(F)(F)F)c(C)cc2F)c(=O)n1CC=C [Example 429]
Exam item: Pick one, P or Q : lowest reported logP[b]. // respond with label for picked entry
Marked response: P
(P: 1.86, Q: 4.07)

====

Tested on: Phaedon cochleariae
protocolDetails: Phaedon cochleariae spray test (PHAECO)
Assay type: in vivo
conditionLabel: application rate of 500 g/ha; after 7 days
measuredProperty: efficacy (%)
Only the number, expressed in %, is required.

molecule: CCc1nn(-c2cc(SCC(F)(F)F)c(C)cc2F)c(=S)n1C1CC1
efficacy (%): 83
//
molecule: COC1=CC(=O)N(c2ccc(C#N)c(SCC(F)(F)F)c2)C1
efficacy (%): 100
//
molecule: COc1nn(-c2cc(SCC(F)(F)F)c(C)cc2F)c(=O)n1C
efficacy (%): 100

# input for lookup
Exam item: Query efficacy for COc1nn(-c2cc([S+]([O-])CC(F)(F)F)c(Cl)cc2Cl)c(=O)n1C1CC1 (centres unmarked)
Marked response: 100
